Target: KPNB1 1-876 IBN_N+Arm (domain begin residue: 1, domain end residue: 876), Q14974
Sequence (Q14974 whole entry): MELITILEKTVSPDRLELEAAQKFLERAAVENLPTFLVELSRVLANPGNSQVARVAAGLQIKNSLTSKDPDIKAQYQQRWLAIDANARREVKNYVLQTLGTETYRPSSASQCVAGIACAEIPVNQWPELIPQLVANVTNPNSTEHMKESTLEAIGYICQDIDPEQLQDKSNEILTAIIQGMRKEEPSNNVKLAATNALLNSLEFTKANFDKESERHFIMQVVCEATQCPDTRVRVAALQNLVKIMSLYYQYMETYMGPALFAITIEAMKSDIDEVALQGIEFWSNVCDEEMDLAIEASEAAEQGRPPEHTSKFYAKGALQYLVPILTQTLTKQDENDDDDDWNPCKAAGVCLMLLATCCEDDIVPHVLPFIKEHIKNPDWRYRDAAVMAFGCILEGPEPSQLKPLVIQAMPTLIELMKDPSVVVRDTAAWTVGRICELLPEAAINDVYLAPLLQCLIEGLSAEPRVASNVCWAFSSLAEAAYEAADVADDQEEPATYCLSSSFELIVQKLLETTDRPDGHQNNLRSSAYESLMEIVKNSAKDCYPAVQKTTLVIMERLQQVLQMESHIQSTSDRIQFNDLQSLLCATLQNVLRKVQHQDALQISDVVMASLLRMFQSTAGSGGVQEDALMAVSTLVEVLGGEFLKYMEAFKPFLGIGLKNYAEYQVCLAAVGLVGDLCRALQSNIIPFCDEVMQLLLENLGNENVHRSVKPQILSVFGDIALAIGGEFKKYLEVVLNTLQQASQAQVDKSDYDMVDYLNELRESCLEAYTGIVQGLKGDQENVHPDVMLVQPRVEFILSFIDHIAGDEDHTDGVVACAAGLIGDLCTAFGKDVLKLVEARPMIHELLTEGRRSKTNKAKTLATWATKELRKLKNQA
Assay: phage ELISA signal ratio (GST-PRM binding over GST background); higher = stronger binding of peptide-phage to the PRM
METRIC: phage ELISA signal ratio

Known results for binders:
query: Would you kindly share the measured phage ELISA signal ratio for YDFGPFMGVGAPSFQF ?
result: 9.88

query: What does the data say about its phage ELISA signal ratio? Entry: PSEWENYMSVGDIFIF
result: 16.9

query: Quick check: phage ELISA signal ratio of WQMWTPLGDLDQIYTF ?
result: 16.1

New cases:
query: Data request, read-out phage ELISA signal ratio, for PHEFQWALWPSGVFVF
result: 14
